# TARGET_SYSTEM: unphosphorylated c-KIT kinase (uKIT, Seq. ID no. 2) (Homo sapiens, UniProt P10721)
# Construct: uKit with N-terminal GST fusion used for
# Sequence (P10721 with tags, fused parts or gaps): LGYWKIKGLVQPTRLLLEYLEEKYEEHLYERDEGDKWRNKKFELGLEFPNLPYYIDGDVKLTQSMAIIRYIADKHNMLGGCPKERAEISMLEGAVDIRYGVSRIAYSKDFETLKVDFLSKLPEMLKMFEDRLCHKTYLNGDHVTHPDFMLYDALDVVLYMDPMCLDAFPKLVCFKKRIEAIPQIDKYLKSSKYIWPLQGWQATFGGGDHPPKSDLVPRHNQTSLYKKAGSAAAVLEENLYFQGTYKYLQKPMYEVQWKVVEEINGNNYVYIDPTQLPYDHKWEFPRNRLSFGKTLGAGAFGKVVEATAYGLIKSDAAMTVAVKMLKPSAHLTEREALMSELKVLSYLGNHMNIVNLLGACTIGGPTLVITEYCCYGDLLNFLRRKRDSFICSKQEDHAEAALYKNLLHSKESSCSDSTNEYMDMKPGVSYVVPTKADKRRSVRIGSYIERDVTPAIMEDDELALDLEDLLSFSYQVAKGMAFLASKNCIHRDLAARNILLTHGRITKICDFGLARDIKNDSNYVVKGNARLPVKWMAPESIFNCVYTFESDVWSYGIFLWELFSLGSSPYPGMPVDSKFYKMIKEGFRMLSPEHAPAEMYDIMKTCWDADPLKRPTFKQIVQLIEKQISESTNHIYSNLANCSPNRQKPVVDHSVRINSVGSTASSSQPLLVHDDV
# EXPERIMENT_SUMMARY: uKit kinase assay (pyruvate kinase/lactate dehydrogenase coupled)
# CONDITION_PARAMETERS: ATP 2000 μM
PARAMETER_MEASURED: IC50

Recorded results for 4 compounds are shown here.
// lookup IC50 for `CC(=O)Nc1cc(Oc2ccc(NC(=O)NC(=O)C3CCCC3)nc2C)ccn1`
100 to 1000 nM

What do we get for `CNC(=O)c1cc(Oc2ccc(NC(=O)NC(=O)C(C)(C)OC)nc2)ccn1` ?
> 1000 nM

# iterate: `CN1CCC(C(=O)Nc2cc(Oc3ccc(NC(=O)NC(=O)C4(C)CC4)nc3)ccn2)CC1`
> 1000 nM

Likewise for `CC(C)C(=O)NC(=O)Nc1ccc(Oc2ccnc(NC(=O)C3CCN(C)CC3)c2)cn1` ?
> 1000 nM

Would you mind listing IC50 for each of the following compounds?
1. CCC(=O)Nc1cc(Oc2ccc(NC(=O)NC(=O)C(C)(C)C)nc2)ccn1
2. COC(C)(C)C(=O)NC(=O)Nc1ccc(Oc2ccnc(NC(=O)C3CC3)c2)cn1
3. CCC(=O)NC(=O)Nc1ccc(Oc2ccnc(NC(C)=O)c2)cn1
4. CC(=O)Nc1cc(Oc2ccc(NC(=O)NC(=O)C3CCCC3)nc2)ccn1
5. CC(=O)Nc1cc(Oc2ccc(NC(=O)NC(=O)C(C)C)nc2)ccn1
6. CN(C)C1CN(C(=O)Nc2cc(Oc3ccc(NC(=O)NC(=O)C(C)(C)C)nc3)ccn2)C1
7. CC(C)(C)C(=O)NC(=O)Nc1ccc(Oc2ccnc(NC(=O)CN3CCCC3)c2)cn1
8. CCC(=O)Nc1cc(Oc2ccc(NC(=O)NC(=O)C3(C)CC3)nc2)ccn1

100 to 1000 nM
100 to 1000 nM
> 1000 nM
100 to 1000 nM
> 1000 nM
100 to 1000 nM
> 1000 nM
100 to 1000 nM

---

# Test system: osteoclast precursors
# EXPERIMENT_SUMMARY: Osteoclast tartrate-resistant acid phosphatase assay
# Assay type: cell-based
# CONDITION_PARAMETERS: Osteoclast; 7-14 days, RANKL and M-CSF
# Description: Diluted compound was transferred to a 384-well black clear bottom plate. […] Tartrate-resistant acid phosphatase activity in the supernatant samples was determined using an acid phosphatase assay kit (Sigma, St. Louis, Mo.). Absorbance was measured at 550 nm using a plate reader. Data was analyzed using Prism software (Graphpad, San Diego, Calif.) to calculate IC50 values.
PARAMETER_MEASURED: IC50

For `COCCNC(=O)Nc1cc(Oc2ccc(NC(=O)NC(=O)C(C)(C)C)nc2)ccn1` , what is its reported IC50?
10 to 100 nM

Below are 8 compounds. Give each one its IC50.
1. CC(=O)Nc1cc(Oc2ccc(NC(=O)NC(=O)C3(C)CCC3)nc2C)ccn1
2. CCC(=O)Nc1cc(Oc2ccc(NC(=O)NC(=O)C(C)(C)C)nc2)ccn1
3. CC(=O)Nc1cc(Oc2ccc(NC(=O)NC(=O)C3(C)CCC3)nc2)ccn1
4. COC(C)(C)C(=O)NC(=O)Nc1cc(C)c(Oc2ccnc(NC(C)=O)c2)cn1
5. CC(C)(C)C(=O)NC(=O)Nc1ccc(Oc2ccnc(NC(=O)N3CCNCC3)c2)cn1
6. CC(=O)Nc1cc(Oc2ccc(NC(=O)NC(=O)C3CCCC3)nc2)ccn1
7. CC(=O)Nc1cc(Oc2ccc(NC(=O)NC(=O)C3CCOC3)nc2)ccn1 (stereo not drawn)
8. Cc1nc(NC(=O)NC(=O)C(C)(C)C)ccc1Oc1ccnc(NC(=O)C(C)C)c1

< 10 nM
< 10 nM
< 10 nM
10 to 100 nM
< 10 nM
< 10 nM
10 to 100 nM
10 to 100 nM

Take each entry in turn and give its IC50.
1. CNC(=O)c1cc(Oc2ccc(NC(=O)NC(=O)C(C)(C)OC)nc2)ccn1
2. COC(C)(C)C(=O)NC(=O)Nc1ccc(Oc2ccnc(NC(=O)C3CCN(C)CC3)c2)cn1

["10 to 100 nM", "10 to 100 nM"]

For the compound `CCC(=O)Nc1cc(Oc2ccc(NC(=O)NC(=O)C3(OC)CC3)nc2)ccn1` , what IC50 is on record?
10 to 100 nM
